Molecular target: T1, Recombinant DR3-Fc (R&D Systems, cat. #943-D3) (UniProt Q93038 25-199, limits assumed)
T1 construct: dimeric MW~92 kDa; also called DR3 receptor; Fc-DR3; not shown: Fc part of the bought fusion
T1 sequence (looked up): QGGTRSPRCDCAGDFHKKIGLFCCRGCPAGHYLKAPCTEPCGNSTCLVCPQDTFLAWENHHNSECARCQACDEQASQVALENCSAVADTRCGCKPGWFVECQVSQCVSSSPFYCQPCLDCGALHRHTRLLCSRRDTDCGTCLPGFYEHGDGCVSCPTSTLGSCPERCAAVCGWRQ
Experiment: ELISA, DR3-Fc immobilized
Would you mind telling me the reported Rel EC50 of each entry?

These solved cases illustrate the format of a correct answer.
[
  {
    "binder": "TL1W105 (His-TEV-TL1A T185N) (ligand, also called TL1W105 (T185N)) HHHHHHENLYFQGLKGQEFAPSHQQVYAPLRADGDKPRAHLTVVRQTPTQHFKNQFPALHWEHELGLAFTKNRMNYTNKFLLIPESGDYFIYSQVTFRGMTSECSEIRQAGRPNKPDSITVVITKVNDSYPEPTQLLMGTKSVCEVGSNWFQPIYLGAMFSLQEGDKLMVNVSDISLVDYTKEDKTFFGAFLL",
    "reportedMeasurement": "6.9 ratio (head: nM)"
  },
  {
    "binder": "TL1W25 (His-TEV-hTL1A 72-251 N207A) (ligand, also called TL1W25 (N207A)) HHHHHHENLYFQGLKGQEFAPSHQQVYAPLRADGDKPRAHLTVVRQTPTQHFKNQFPALHWEHELGLAFTKNRMNYTNKFLLIPESGDYFIYSQVTFRGMTSECSEIRQAGRPNKPDSITVVITKVTDSYPEPTQLLMGTKSVCEVGSAWFQPIYLGAMFSLQEGDKLMVNVSDISLVDYTKEDKTFFGAFLL",
    "reportedMeasurement": "0.5 ratio (head: nM)"
  }
]

Lab note: next binder to report on.
Input: Which Rel EC50 is reported for this binder? TL1W43 (His-TEV-TL1A Y188S) (ligand, also called TL1W43 (Y188S)) HHHHHHENLYFQGLKGQEFAPSHQQVYAPLRADGDKPRAHLTVVRQTPTQHFKNQFPALHWEHELGLAFTKNRMNYTNKFLLIPESGDYFIYSQVTFRGMTSECSEIRQAGRPNKPDSITVVITKVTDSSPEPTQLLMGTKSVCEVGSNWFQPIYLGAMFSLQEGDKLMVNVSDISLVDYTKEDKTFFGAFLL
Output: 7.9 ratio (head: nM)
